System: Human immunodeficiency virus 1
Assay: Antiviral activity against HIV1 in CEM cells
Type: functional, organism-based
Conditions: Human immunodeficiency virus 1, CCRF-CEM
pEC50: −log10 of the molar value.
measuredQuantity: pEC50

Worked set:
> print(dat)
                             compound  number
1  Cc1cc(Cl)cc2c1S(=O)(=O)N1CCCN=C1S2    7.05
2     O=S1(=O)c2ccc(Cl)cc2SC2=NCCCN21    5.32

A = Cc1cc2c(cc1Cl)SC1=NCCN1S2(=O)=O
B = Cc1cc2c(cc1Cl)SC1=NC(CCl)CN1S2(=O)=O (stereo not drawn)
C = Cc1cc2c(cc1Cl)SC1=NCC(C)N1S2(=O)=O (stereo not drawn)
D = Cc1cc2c(cc1Cl)SC1=NCC(C)CN1S2(=O)=O (stereo not drawn)
E = Cc1cc2c(cc1Cl)SC1=NCCCN1S2(=O)=O
Put the entries in order of pEC50, starting with the largest number. Order the labels as requested and give them as your answer.
E, B, C, A, D

----------
Assay: Therapeutic index, ratio of IC50 for CEM cells to EC50 for HIV1
Format: cell-based, CCRF-CEM
Details: human, read-out: Ratio IC50/EC50
measuredQuantity: selectivity ratio
Answer with the value's number alone.

Solved cases (3 shown):
> print(dat)
                                   compound  number
1        Cc1cc(Cl)cc2c1S(=O)(=O)N1CCCN=C1S2    1180
2  Cc1cc2c(cc1Cl)SC1=NCC(C)N1S2(=O)=O (configuration not stated)    12.6
3           Cc1cc2c(cc1Cl)SC1=NCCN1S2(=O)=O     8.2

Next, consider the following compound.
# selectivity ratio lookup, item Cc1cc2c(cc1Cl)SC1=NC(CCl)CN1S2(=O)=O (configuration not stated)
6.4

----------
Test: Therapeutic index, ratio of IC50 for CEM cells to EC50 for HIV1
Format: cell-based, CCRF-CEM
Details: human, read-out: Ratio IC50/EC50
measuredQuantity: selectivity ratio

> print(dat)
                           compound   measuredquantity  result
1  Cc1cc2c(cc1Cl)SC1=NCCCN1S2(=O)=O  selectivity ratio   > 204
2   O=S1(=O)c2ccc(Cl)cc2SC2=NCCCN21  selectivity ratio  > 42.1

Which selectivity ratio is listed for Cc1cc2c(cc1Cl)SC1=NCC(C)CN1S2(=O)=O (stereo not drawn) ?
> 1.23

Values were extracted from ChEMBL document CHEMBL1137245.
